molecular target: IRAK4 (Homo sapiens); construct: Degradation of IRAK4 in OCI-LY10 was quantitatively measured using Meso Scale Discovery technology; endogenous in cells; host or cells: OCI-LY10; assay: IRAK4 MSD Degradation in OCI-LY10; format: cell-based; details: OCI-LY10 cells, 4 hrs incubation, MSD; read-out: IRAK4 degradation in OCI-LY10 at 4 hrs: DC50
Assign DC50 to each entry below.

Name the recorded DC50 of the item Cn1c(=O)n(C2CCC(=O)NC2=O)c2cccc(C3CN(C4CCN(C[C@H]5CC[C@H](n6cc(NC(=O)c7cnn8ccc(N9C[C@H]%10C[C@@H]9CO%10)nc78)c(C(F)F)n6)CC5)CC4(F)F)C3)c21 (some centres unmarked) in your answer.
> 200 nM

Name the recorded DC50 of the item Cn1c(=O)n(C2CCC(=O)NC2=O)c2cccc(C[C@H]3C[C@H](N4CCN(C[C@H]5CC[C@H](n6cc(NC(=O)c7cnn8ccc(N9C[C@H]%10CC9CO%10)nc78)c(C(F)F)n6)CC5)CC4)C3)c21 (some centres unmarked) in your answer.
> 200 nM

Name the recorded DC50 of the item Cn1c(=O)n(C2CCC(=O)NC2=O)c2cccc(CC[C@H]3CN(Cc4ccc(-n5cc(NC(=O)c6cnn7cccnc67)c(C(F)F)n5)cc4)CCO3)c21 (some centres unmarked) in your answer.
> 200 nM

Name the recorded DC50 of the item Cn1c(=O)n(C2CCC(=O)NC2=O)c2cccc([C@H]3CCN(C[C@H]4CC[C@H](n5cc6cc(NC(=O)c7cccc(C(F)(F)F)n7)ncc6n5)CC4)C[C@H]3F)c21 (single isomer, unassigned) in your answer.
> 200 nM

Name the recorded DC50 of the item Cc1cccc(C(=O)Nc2cc3cn([C@H]4CC[C@H](CN5CC[C@@H](c6cccc7c6n(C)c(=O)n7C6CCC(=O)NC6=O)[C@@H](F)C5)CC4)nc3cc2C(C)(C)O)n1 (some centres unmarked) in your answer.
> 200 nM

---

biological target: IRAK4 (Homo sapiens, UniProt Q9NWZ3); construct: Degradation of IRAK4 in OCI-LY10 was quantitatively measured using Meso Scale Discovery technology; endogenous in cells; host or cells: OCI-LY10; assay: IRAK4 MSD Degradation in OCI-LY10; type: cell-based; conditions: OCI-LY10 cells, 4 hrs incubation, MSD; read-out: IRAK4 degradation in OCI-LY10 at 4 hrs: DC50
Sequence (Q9NWZ3 whole entry): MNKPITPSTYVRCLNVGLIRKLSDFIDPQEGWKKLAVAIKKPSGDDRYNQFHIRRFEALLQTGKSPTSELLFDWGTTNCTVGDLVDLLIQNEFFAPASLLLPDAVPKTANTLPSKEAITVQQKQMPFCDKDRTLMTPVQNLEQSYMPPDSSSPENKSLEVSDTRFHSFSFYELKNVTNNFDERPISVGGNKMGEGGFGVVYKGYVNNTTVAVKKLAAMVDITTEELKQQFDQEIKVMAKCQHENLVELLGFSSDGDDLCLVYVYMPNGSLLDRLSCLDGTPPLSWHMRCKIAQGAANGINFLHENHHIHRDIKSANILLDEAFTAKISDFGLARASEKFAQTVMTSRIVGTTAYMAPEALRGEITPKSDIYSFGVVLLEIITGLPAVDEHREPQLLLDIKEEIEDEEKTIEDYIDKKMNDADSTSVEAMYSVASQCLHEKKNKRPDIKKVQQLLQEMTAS
Assign DC50 to each entry below.

Name the recorded DC50 of the item Cc1cccc(C(=O)Nc2cc3cn([C@H]4CC[C@H](CN5CC[C@H](c6cccc7c6n(C)c(=O)n7C6CCC(=O)NC6=O)[C@@H](F)C5)CC4)nc3cc2C(C)(C)O)n1 (some centres unmarked) [I-646] in your answer.
> 200 nM

Name the recorded DC50 of the item Cc1cccc(C(=O)Nc2ccc3nn([C@H]4CC[C@H](CN5CC[C@H](c6cccc7c6n(C)c(=O)n7C6CCC(=O)NC6=O)[C@@H](F)C5)CC4)cc3c2)n1 (some centres unmarked) [I-622] in your answer.
> 200 nM

Name the recorded DC50 of the item COc1cc2nn([C@H]3CC[C@H](CN4CCC5(CC4)CCN(c4cccc(N6CCC(=O)NC6=O)c4)CC5)CC3)cc2cc1NC(=O)c1cncc(C#N)c1 [I-85] in your answer.
> 200 nM

Name the recorded DC50 of the item Cn1c(=O)n(C2CCC(=O)NC2=O)c2cccc(C#CCN3CCN(C[C@H]4CC[C@H](n5cc(NC(=O)c6cnn7ccc(N8CC[C@@]9(CCOC9)C8)nc67)c(C(F)F)n5)CC4)CC3)c21 (some centres unmarked) [I-419] in your answer.
10 to 100 nM

Name the recorded DC50 of the item Cn1c(=O)n(C2CCC(=O)NC2=O)c2cccc(CN3CC4(CCN(Cc5ccc(-n6cc(NC(=O)c7cnn8ccc(N9C[C@H]%10C[C@@H]9CO%10)nc78)c(C(F)F)n6)cc5)CC4)C3)c21 (some centres unmarked) [I-702] in your answer.
> 200 nM

Name the recorded DC50 of the item Cn1c(=O)n(C2CCC(=O)NC2=O)c2cccc(N3CCC4(CCN(C[C@H]5CC[C@H](c6nc7cc(C(C)(C)O)c(NC(=O)c8cncc(C#N)c8)cc7s6)CC5)CC4)CC3)c21 (some centres unmarked) [I-97] in your answer.
< 10 nM

Name the recorded DC50 of the item Cn1c(=O)n(C2CCC(=O)NC2=O)c2cccc(N3CC4(C3)N(C[C@H]3CC[C@H](n5cc6cc(NC(=O)c7cccc(C(F)(F)F)n7)ccc6n5)CC3)CC4(F)F)c21 (some centres unmarked) [I-500] in your answer.
> 200 nM

Name the recorded DC50 of the item C[C@H]1CN(C[C@H]2CC[C@H](n3cc(NC(=O)c4cnn5ccc(N6C[C@H]7C[C@@H]6CO7)nc45)c(C(F)F)n3)CC2)CCN1CC#Cc1cccc2c1n(C)c(=O)n2C1CCC(=O)NC1=O (some centres unmarked) [I-9] in your answer.
10 to 100 nM

Name the recorded DC50 of the item Cn1c(=O)n(C2CCC(=O)NC2=O)c2cccc(C#CC[C@@H]3CN(Cc4ccc(-n5cc(NC(=O)c6cnn7ccc(N8C[C@H]9C[C@@H]8CO9)nc67)c(C(F)F)n5)cc4)CCO3)c21 (some centres unmarked) [I-390] in your answer.
> 200 nM

Name the recorded DC50 of the item COc1cc2nn([C@H]3CC[C@H](CN4CCC5(CC4)CCN(c4cccc6c4n(C)c(=O)n6C4CCC(=O)NC4=O)CC5)CC3)cc2cc1NC(=O)c1cncc(S(=O)(=O)C(F)(F)F)c1 (some centres unmarked) [I-154] in your answer.
> 200 nM

Name the recorded DC50 of the item CN(C[C@H]1CC[C@H](n2cc(NC(=O)c3cnn4ccc(N5C6CCC5COC6)nc34)c(C(F)F)n2)CC1)C1CCN(c2cccc3c2n(C)c(=O)n3C2CCC(=O)NC2=O)CC1(F)F (some centres unmarked) [I-527] in your answer.
> 200 nM

Origin of values: patent US12091411B2
